Cited source for all entries: ChEMBL document CHEMBL1201862

System: SNB-75
method_summary: NCI tumour cell line growth inhibition, 48 h
Calls of active or inactive are those of the source. Rule as the data show it: active = GI50 up to about 1.1 µM and inactive = higher.
Give measured GI50 for each item. Keep answers brief.

# batch: return GI50 for each of the 2 molecules below
1. O=C(O)CNc1ncc2c(n1)-c1ccccc1OC2
2. Cc1ccc(S(=O)(=O)c2c(N)n(CCN(C)C)c3nc4ccccc4nc23)cc1

Response:
["> 100 µM (inactive)", "> 100 µM (inactive)"]

Below are 2 molecules. Give each one its GI50.
1. N=C(N)NS(=O)(=O)c1ccc(N/N=C2/CCOC2=O)cc1
2. CCOC(=O)c1cc(I)c(-c2cc(C)no2)n1C

Response:
21.7 µM (inactive)
49.8 µM (inactive)

Dear reader, for each entry below, please note its GI50.
1. CC(C)(CN1CCCCC1)C(=O)CC(SCCS(=O)(=O)O)c1ccc(Br)cc1 (stereo unspecified)
2. COC(=O)c1ccc(C)cc1CC1Cc2ccc(C)cc2C1=O (stereo unspecified)

Response:
["2.07 µM (inactive)", "5.69 µM (inactive)"]

Please state GI50 for every molecule in the list that follows.
1. CC1CC(C)C(=O)C(C(=O)CC2CC(=O)NC2=O)C1 (stereo unspecified)
2. c1ccc(CC2(c3cc4ccccc4[nH]3)OCCO2)nc1
3. CC(=O)OCC1OC(n2c(-c3cccs3)c3c(c(C#N)c2=S)-c2ccccc2CC3)C(OC(C)=O)C(OC(C)=O)C1OC(C)=O (stereo unspecified)

Response:
> 100 µM (inactive)
12.1 µM (inactive)
1.36 µM (inactive)

List the reported GI50 of each molecule below.
1. O=C(Nc1cnc(O)nc1O)Oc1ccccc1
2. O=C(O)/C=C\C(=O)c1ccc(Cl)cc1

Response:
["> 100 µM (inactive)", "44 µM (inactive)"]
